B1: SNX8 (parent)
chain: VVLKLFLSFSGSDVQNKLKESAQC

# Variants of: B1
# EXPERIMENT SUMMARY: protein stability index of a GFP-peptide fusion (GPS, HEK-293T) (PSI 1-6); higher = more stable;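 further: lentivirally expressed fusions sorted by FACS into six bins by GFP to DsRed ratio, PSI derived from sequencing read proportions per bin multiplied by bin number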
# ASSAY CONDITIONS: c terminus: a fixed tail appended
ASSAY ENDPOINT: protein stability index

Examples from the recorded data:
K19F :: 2.79
L18F :: 2.86
S12Y :: 4.07
F9W :: 2.48
S8A :: 1.77
F6D :: 1.17

Any idea what its protein stability index is? The variant is K4S 2.38

Let us now turn to F9T 2.41

Another variant: E20S 3.97

Then what about the variant S8M ? 4.24

Check V14S too. 4.53
